Molecular target: T1, human MSLN-R3-his protein (human, UniProt Q13421 487-598)
T1 construct: Region 3 of human mesothelin, made in HEK293E cells, His-tagged; also called human MSLN-R3 protein; hMSLN-R3-his; not shown: His tag
T1 sequence (Q13421 495-606): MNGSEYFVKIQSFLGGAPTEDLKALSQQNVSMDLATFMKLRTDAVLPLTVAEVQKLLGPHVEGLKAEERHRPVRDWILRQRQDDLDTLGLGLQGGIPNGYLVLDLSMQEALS
Assay: ELISA on coated MSLN-R3; antibody 0.1 nM
Readout Type: OD450 (OD450)
// note: answer is a bare numeric in OD450

S009-F8-15.19 (antibody, human IgG1, kappa, V domains shown) VH: EFQLQQSGPELVKPGASVKISCKASGYSFTDYNMNWVKQSNGKSLEWIGIINPYYGTTSNNQNFKGKATLTVDQSSSTAYMQLNSLTSDDSAVYYCARWLRRDAMDYWGQGTSVTVSS VL: DIVMTPSHKFMSTSVGDRVSIACKASQDVGSSVAWYQQKPGQSPKLLIYWTSTRHTGVPDRFTGSGSGTDFTLTISNVQSEDLADYFCQQYSSYPWTFGGGTKLEIKR; 0.04

Please look at the following binder next.
So for S009-F8-13.8 (antibody, human IgG1, kappa, V domains shown) VH: EFQLQQSGPELVKPGASVKISCKASGYSFTDYNMNWVKQTNGKSLEWIGIINPNYGTSSYNQKFKGKATLTVDQSSSTAYMQLNSLTSEDSAVYYCARVGRDNSGFDYWGQGTTLTVSS VL: QIVLTQSPAIMSASPGEKVTMTCSASSSVSYMYWYQQKPGSSPRLLIYDTSNLASGVPVRFSGSGSGTSYSLTISRMEAEDAATYYCQQWSSYPPTFGSGTELEIKR , the logged OD450 turned out to be 0.04
